The reported measurements were obtained from patent US8653075B2.

ASSAY_TARGET: human chemokine receptor CCR3 (Homo sapiens)
Construct: expressed in transfected cells; host or cells: K562 cell line (hCCR3-C1 cells), membrane preparation
TEST_SUMMARY: CCR3 receptor binding assay (SPA, 125I-eotaxin-1 displacement, hCCR3-C1 K562 cell membranes)
PROTOCOL_CONDITIONS: 1 μM test compound; human Eotaxin-1 at human CCR3-Rezeptor; read-out: CCR3 % inh @ 1 μM
Each entry below carries its reported inhibition at 1 µM.
Write down the numeric answer in % and omit the unit.

>  <COMPOUND>
CNC(=O)c1cc(NC(=O)[C@H]2CCC(=O)N2C2CCN(Cc3ccc(Cl)c(C)c3)CC2)cc(C(=O)N(C)C)c1 [Example 106]

>  <ASSAY_TARGET>
human chemokine receptor CCR3 (Homo sapiens)

>  <REPORTED_ENDPOINT>
inhibition at 1 µM

>  <MEASURED_VALUE>
100

$$$$
>  <COMPOUND>
COc1cc(NC(=O)[C@H]2CCC(=O)N2C2CCN(Cc3ccc(Cl)c(C)c3)CC2)ccc1N1CCCCC1=O [Example 34]

>  <ASSAY_TARGET>
human chemokine receptor CCR3 (Homo sapiens)

>  <REPORTED_ENDPOINT>
inhibition at 1 µM

>  <MEASURED_VALUE>
80

$$$$

# next compound below
Q. For Cc1cc(CN2CCC(N3C(=O)CC[C@@H]3C(=O)Nc3cccc(C(=O)NC4CCC4)c3)CC2)ccc1Cl [Example 134] , what is its reported inhibition at 1 µM?
A. 101

----------
Sequence of the target: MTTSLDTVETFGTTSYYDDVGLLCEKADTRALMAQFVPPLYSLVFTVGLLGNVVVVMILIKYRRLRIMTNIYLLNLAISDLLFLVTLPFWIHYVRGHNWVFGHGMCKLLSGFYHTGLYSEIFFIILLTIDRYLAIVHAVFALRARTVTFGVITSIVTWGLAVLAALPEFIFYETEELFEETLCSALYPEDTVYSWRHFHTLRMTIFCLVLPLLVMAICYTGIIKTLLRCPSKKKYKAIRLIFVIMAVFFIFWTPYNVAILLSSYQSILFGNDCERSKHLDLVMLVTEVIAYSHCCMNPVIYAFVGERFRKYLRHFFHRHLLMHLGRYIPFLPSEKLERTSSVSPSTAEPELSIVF
REPORTED_ENDPOINT: pKi
# pKi is unitless: minus log10 of the molar concentration; print number only

Solved cases below.
>  <COMPOUND>
Cc1cc(CN2CCC(N3C(=O)CC[C@H]3C(=O)NC3CCN(S(C)(=O)=O)C3)CC2)ccc1Cl (some centres unmarked) [Example 53]

>  <pKi>
5.70

$$$$
>  <COMPOUND>
Cc1cc(CN2CCC(N3C(=O)CC[C@@H]3C(=O)Nc3cccc(C(=O)NCC(C)(C)C)c3)CC2)ccc1Cl [Example 163]

>  <pKi>
7.64

$$$$
>  <COMPOUND>
COCC(NC(=O)C1CCC(=O)N1C1CCN(Cc2ccc(Cl)c(C)c2)CC1)c1nc2ccc(Cl)cc2[nH]1 (centres unmarked) [Example 67]

>  <pKi>
6.15

$$$$
>  <COMPOUND>
CNC(=O)c1cc(NC(=O)[C@H]2CCC(=O)N2C2CCN(Cc3ccc(Cl)c(C)c3)CC2)cc(OC)c1 [Example 174]

>  <pKi>
7.89

$$$$

# next compound below
Q. For Cc1cc(CN2CCC(N3C(=O)CC[C@@H]3C(=O)Nc3cccc(C(=O)NCC4CCCCO4)c3)CC2)ccc1Cl (some centres unmarked) [Example 161] , what is its reported pKi?
A. 7.70
